Provenance of the data: patent US20130115170A1

Target: T1, cholera toxin B subunit (Vibrio cholerae), P01556
T1 chain: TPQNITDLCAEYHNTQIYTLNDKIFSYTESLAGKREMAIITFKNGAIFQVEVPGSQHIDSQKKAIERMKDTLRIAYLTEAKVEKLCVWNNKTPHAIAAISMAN
Assay: solid-phase ELISA, competition: peptide inhibits CTB binding to GM1
experimental_endpoint: pIC50
Interpret pIC50 as the negative base-10 log of the concentration measured in mol/L.

Which value of pIC50 has been reported for IPQVWRDWFKLP (modifications not checked) [PGM1-3] in the records? 8.02

Which value of pIC50 has been reported for QINTAKWWKTHF (modifications not checked) [PGM1-5] in the records? 7.46

Which value of pIC50 has been reported for YSPFHKWFPSMH (modifications not checked) [PGM1-2] in the records? 7.34

Which value of pIC50 has been reported for VSWKTWFPNLAV (modifications not checked) [PGM1-1] in the records? 7.42

Which value of pIC50 has been reported for FPAWFTKLYPRT (modifications not checked) [PGM1-4] in the records? 7.11
